# credit: patent US7459479B2

I'd be grateful if you could share measured IC50 for these entries.
- ASSAYED TARGET: HARBS site of PDE4
- Construct: HARBS IC50; other: mouse brain membranes, [3H]-ROLIPRAM displacement; other: mouse brain; other: relative to ROLIPRAM (25, 26) or
- EXPERIMENT NOTES: Displacement of [3H]-ROLIPRAM from the high affinity binding site (HARBS) in mouse brain membranes
- ASSAY CONTEXT: mouse brain membranes, [3H]-ROLIPRAM displacement
- Procedure: In order to perform this assay, female CD1 mice are sacrificed via the intraperitoneal injection of 100 μL ethanol, and the brain tissue is homogenized in 5 mL of ice-cold Tris-HCl, pH 8.00 supplemented with 1.2 mM MgCl2, 1 mM benzamidine (Sigma; Catalogue No. B 6506) and 0.1 mM PMSF (Sigma; Catalogue No. P 7626). The suspension is centrifuged twice at 30,000×G at 4° C. and then the supernatant discarded. The pellet is resuspended in buffer, and adjusted to a protein concentration of 0.5 mg/mL. […]

[in] Suppose we examine the molecule COc1ccc([C@]2(C#N)CC[C@@H](C(=O)O)CC2)cc1OC1CCCC1 [ARIFLO ™, reference compound] ; what IC50 value has been reported?
[out] 76 nM

[in] Suppose we examine the molecule COc1cc(CC2C(=O)NCC2c2ccc(OC)c(OC3CCCC3)c2)ccc1OCc1ccccc1 (centres unmarked) [Compound 25] ; what IC50 value has been reported?
[out] 361 nM
